test: Antifungal activity against Trichophyton rubrum isolate 1 measured after 48 hrs by broth dilution method; type: functional
Listed next: entries and their corresponding MIC.
quantityKind: MIC

INSERT INTO results (compound, result) VALUES
  ('COC1=CC(=O)C[C@@H](C)[C@]12Oc1c(Cl)c(OC)cc(OC)c1C2=O [GRISEOFULVIN]', '0.5 µg/mL'),
  ('CC(C)(C)c1[nH]cnc1/C=C1\NC(=O)[C@H](Cc2ccccc2)NC1=O', '< 0.03 µg/mL'),
  ('COc1cc(/C=c2\[nH]c(=O)/c(=C/c3nc[nH]c3C(C)(C)C)[nH]c2=O)cc(OC)c1OC', '0.06 µg/mL'),
  ('CC(C)(C)c1[nH]cnc1/C=c1\[nH]c(=O)/c(=C/c2ccccc2)[nH]c1=O [PLINABULIN]', '> 16 µg/mL'),
  ('C=CC(C)(C)c1[nH]cnc1/C=c1\[nH]c(=O)/c(=C/c2ccccc2)[nH]c1=O', '> 16 µg/mL'),
  ('C=CC(C)(C)c1[nH]cnc1/C=C1\NC(=O)[C@H](Cc2ccccc2)NC1=O', '> 16 µg/mL');

###

Listed next: entries and their corresponding MIC.
experiment: Antifungal activity against Trichophyton rubrum isolate 2 measured after 48 hrs by broth dilution method; type: functional
quantityKind: MIC

INSERT INTO assay_data (smilesrecord, result) VALUES
  ('CC(C)(C)c1[nH]cnc1/C=C1\NC(=O)[C@H](Cc2ccccc2)NC1=O', '< 0.03 µg/mL'),
  ('C=CC(C)(C)c1[nH]cnc1/C=c1\[nH]c(=O)/c(=C/c2ccccc2)[nH]c1=O', '0.25 µg/mL'),
  ('CC(C)(C)c1[nH]cnc1/C=c1\[nH]c(=O)/c(=C/c2ccccc2)[nH]c1=O', '< 0.03 µg/mL'),
  ('COC1=CC(=O)C[C@@H](C)[C@]12Oc1c(Cl)c(OC)cc(OC)c1C2=O', '< 0.015 µg/mL'),
  ('C=CC(C)(C)c1[nH]cnc1/C=C1\NC(=O)[C@H](Cc2ccccc2)NC1=O', '0.16 µg/mL'),
  ('COc1cc(/C=c2\[nH]c(=O)/c(=C/c3nc[nH]c3C(C)(C)C)[nH]c2=O)cc(OC)c1OC', '< 0.03 µg/mL');

###

tested on: Trichophyton rubrum; assay: Fungicidal activity against Trichophyton rubrum isolate 2 measured after 48 hrs by broth dilution method; type: functional; conditions: isolate 2, 48 h
quantityKind: MFC

INSERT INTO measurements (molecule, assayedtarget, result) VALUES
  ('C=CC(C)(C)c1[nH]cnc1/C=c1\[nH]c(=O)/c(=C/c2ccccc2)[nH]c1=O', 'Trichophyton rubrum', '> 16 mg/L'),
  ('CC(C)(C)c1[nH]cnc1/C=c1\[nH]c(=O)/c(=C/c2ccccc2)[nH]c1=O [PLINABULIN]', 'Trichophyton rubrum', '0.125 mg/L'),
  ('C=CC(C)(C)c1[nH]cnc1/C=C1\NC(=O)[C@H](Cc2ccccc2)NC1=O', 'Trichophyton rubrum', '> 16 mg/L'),
  ('COc1cc(/C=c2\[nH]c(=O)/c(=C/c3nc[nH]c3C(C)(C)C)[nH]c2=O)cc(OC)c1OC', 'Trichophyton rubrum', '< 0.03 mg/L'),
  ('CC(C)(C)c1[nH]cnc1/C=C1\NC(=O)[C@H](Cc2ccccc2)NC1=O', 'Trichophyton rubrum', '< 0.03 mg/L');

// provenance: ChEMBL document CHEMBL3881525
